Data provenance is ChEMBL document CHEMBL1201862.

System: SF-268
Test: NCI tumour cell line growth inhibition, 48 h
Calls of active or inactive are those of the source. No stated cut-off is given here; in the data, active = GI50 up to about 1.1 µM and inactive = higher.
quantity: GI50

Any idea what GI50 was measured for CC(=O)OCC(OC(C)=O)C(OC(C)=O)C(/C=N\Nc1nc2ccccc2c(=O)[nH]1)OC(C)=O (stereo unspecified) ?
> 100 µM (inactive)

Any idea what GI50 was measured for `CN(CCCN=C=S)CCCN1c2ccccc2CCc2ccccc21` ?
1.71 µM (inactive)

Any idea what GI50 was measured for `Cc1ccc(/C=C/C(=O)C(C)(C)CN2CCCCC2)cc1` ?
15.7 µM (inactive)

Any idea what GI50 was measured for CC(C)=CCC/C(C)=C/C=C/C(C)=C/C=C/C(C)=C/C=C/C=C(C)/C=C/C=C(C)/C=C/[C@H]1C(C(C)(C)O)CC[C@]1(C)O (stereo partly specified) ?
19.5 µM (inactive)

Any idea what GI50 was measured for `C(=C\C(SCc1ccccc1)SCc1ccccc1)/c1ccccc1` ?
> 10 µM (inactive)

Any idea what GI50 was measured for `Cc1ccc(/C=N/n2c(Cc3ccccc3)n[nH]c2=O)cc1` ?
> 100 µM (inactive)

Any idea what GI50 was measured for `Cc1ccc2c(CC(=O)O)cc(=O)oc2c1` ?
> 100 µM (inactive)

Any idea what GI50 was measured for CC1=C(C)CC2C(=O)N(c3cc(C(C)(C)C)ccc3C(C)(C)C)C(=O)C2C1 (stereo unspecified) ?
7.91 µM (inactive)

Any idea what GI50 was measured for `N/N=c1\c2ccccc2c2ccc3c4ccccc4/c(=N\N)c3c12` ?
> 100 µM (inactive)

Any idea what GI50 was measured for `C/C(=N/O)c1cccc(Nc2nc3ccccc3c3[nH]c4ccccc4c23)c1` ?
1.87 µM (inactive)

Any idea what GI50 was measured for C#CC1(O)C(COP(=O)(O)OC(COCCCCCCCCCCCCCCCCCC)COP(=O)(O)OCC2OC(n3cc(C)c(=O)[nH]c3=O)CC2N=[N+]=[N-])OC(n2ccc(N)nc2=O)C1O (stereo unspecified) ?
0.957 µM (active)

Any idea what GI50 was measured for `Cc1ccc(-c2cc(=O)c(=O)[nH][nH]2)cc1` ?
> 100 µM (inactive)

Any idea what GI50 was measured for COc1cc(C2c3cc4c(cc3[C@@H](Nc3ccc(F)cc3)C3COC[C@H]23)OCO4)cc(OC)c1O (stereo partly specified) ?
3.85 µM (inactive)

Any idea what GI50 was measured for `N#Cc1c(C#N)c(-c2ccco2)n(/N=C/c2ccco2)c1N` ?
28.2 µM (inactive)

Any idea what GI50 was measured for Cc1ccc(C)c(NC2=NC(=O)C(CC(=O)Nc3ccc(Cl)cc3Cl)S2)c1 (stereo unspecified) ?
37.8 µM (inactive)

Any idea what GI50 was measured for `Cc1cccc(/C=N/NC(=S)NC2CCCCC2)n1` ?
32 µM (inactive)

* * *

Test system: K562
Assay: NCI tumour cell line growth inhibition, 48 h
The source made the active and inactive calls. Rule as the data show it: active = GI50 up to about 1.1 µM and inactive = higher.
quantity: GI50

Any idea what GI50 was measured for `COc1cc(OC)c(OC)cc1/C=C/c1cc[n+](C)c2ccccc12` ?
3.07 µM (inactive)

Any idea what GI50 was measured for Fc1ccccc1C1SCC2=Nc3ccccc3CN21 (stereo unspecified) ?
> 100 µM (inactive)

Any idea what GI50 was measured for `N#CCN1CCOCCOCCN(CC#N)CCOCCOCC1` ?
> 100 µM (inactive)

Any idea what GI50 was measured for CC(C)CCCC(C)[C@H]1CC[C@H]2[C@@H]3CC[C@H]4C[C@@H](CCC=C(c5cc(Cl)c(O)c(C(=O)O)c5)c5cc(Cl)c(O)c(C(=O)O)c5)CC[C@]4(C)[C@H]3CC[C@]12C (stereo partly specified) ?
31.1 µM (inactive)

Any idea what GI50 was measured for `C/C(=N\n1c(Cc2ccccc2)n[nH]c1=O)c1ccc([N+](=O)[O-])cc1` ?
> 100 µM (inactive)

Any idea what GI50 was measured for `CC(/C=C/c1ccccc1)=N\N=C(C)\C=C\c1ccccc1` ?
> 100 µM (inactive)
